These entries and their values trace back to PubChem BioAssay (NCATS).

system: KB-3-1; assay: Cytotoxic Profiling of Annotated Libraries Using Quantitative High-Throughput Screening (AID 1296008); conditions: Five cell lines viability, CellTiter-Glo ATP luminescence, 48-72 h; active compounds read low; note: % is set by controls: 0 for no effect and ±100 for the full control effect; nearly all actives have a fitted effect of over 60% in size
Records with an inconclusive call do not appear. Where a SMILES comes first, the peptide text is derived from it. The star is where a group is joined. Hexanoyl = CCCCCC(=O)*
Reported max response values are given for each entry in this list.
// return numeric value only (unit: %, not printed)

CC(C)=CCC[C@](C)(O[C@@H]1O[C@H](CO[C@@H]2OC[C@H](O)[C@H](O)[C@H]2O)[C@@H](O)[C@H](O)[C@H]1O)[C@H]1CC[C@]2(C)[C@@H]1[C@H](O)C[C@@H]1[C@@]3(C)CC[C@H](O[C@@H]4O[C@H](CO)[C@@H](O)[C@H](O)[C@H]4O[C@@H]4O[C@H](CO)[C@@H](O)[C@H](O)[C@H]4O)C(C)(C)[C@@H]3CC[C@]12C; 1.14

Challenge: Would you kindly share the measured max response for CCC/C=C1\OC(=O)C2=C1CCC(O)C2O (centres undefined) ?
Response given: 0.969

Challenge: Proceed to `C[C@@H](NC(=O)c1cc(C(=O)N[C@@H](Cc2ccccc2)[C@H](O)CNC2CC2)cc(N(C)S(C)(=O)=O)c1)c1ccccc1`
Response given: -1.48

Challenge: Proceed to Cc1ccc2[nH]c(=O)c(C3=NN(C(=O)CCC(=O)O)C(c4ccc(Br)cc4)C3)c(-c3ccccc3)c2c1 (centres undefined)
Response given: 4.72

Challenge: Proceed to C=C(CCO)C(=O)OCC1OCC(OC(=O)C(=C)CCO[C@@H]2O[C@H](CO)[C@@H](O)[C@H](O)[C@H]2O)C(O)C1O (some centres undefined)
Response given: 4.34

Challenge: Proceed to CC1=CC(=O)CC(C)(C)C1/C=C/C(C)OC1OC(COC2OCC(O)C(O)C2O)C(O)C(O)C1O (centres undefined)
Response given: 9.19

Challenge: Proceed to OC[C@@]1(O)CO[C@H](OC[C@H]2O[C@@H](OC(CCCCc3ccc(O)cc3)CCc3ccc(O)cc3)[C@H](O[C@H]3OC[C@](O)(CO)[C@H]3O)[C@@H](O)[C@@H]2O)[C@@H]1O (some centres undefined)
Response given: 2.31

Challenge: Proceed to CCCCCC(=O)N1CCC[C@H]1C(=O)N[C@@H](Cc1ccc(O)cc1)C(=O)OC (Hexanoyl-Pro-Tyr-OMe)
Response given: -0.528

Challenge: Proceed to CC1=CC(=O)C(=C(C)C)CC2C(C)(O)CCC12O (centres undefined)
Response given: 8.8
